Test system: dexamethasone-induced thymic and splenic atrophy
Assay: Dexamethasone-induced thymic and splenic atrophy in mice
Format: in vivo, CD-1 mice
Parameters: unit not given here
Conditions: Table 15; steroid 20 mg/kg in Cremophor-saline + dexamethasone
valueType: Spleen wt

Look up Spleen wt with dexamethasone-induced thymic and splenic atrophy for this compound: C[C@H]1CC[C@@]2(C)C(=CC[C@@H]3[C@@H]2CC[C@]2(C)C(=O)[C@H](F)C[C@@H]32)C1 [3β-methyl-16α-fluoro-5-androsten-17-one] 55.0 ± 4.6

State its Spleen wt on dexamethasone-induced thymic and splenic atrophy: C[C@H]1CC[C@@]2(C)C(=CC[C@@H]3[C@@H]2CC[C@]2(C)C(=O)CC[C@@H]32)C1 [3β-methyl-5-androsten-17-one] 67.0 ± 11.3

Entry C[C@H]1CC[C@@]2(C)C(=CC[C@@H]3[C@@H]2CC[C@]2(C)C(=O)[C@H](C)C[C@@H]32)C1 [3β-methyl-16α-methyl-5-androsten-17-one] , system dexamethasone-induced thymic and splenic atrophy: what Spleen wt was measured? 44.4 ± 8.7

For the record C[C@H]1CC[C@@]2(C)C(=CC[C@@H]3[C@@H]2CC[C@]2(C)C(=O)[C@H](Cl)C[C@@H]32)C1 [3β-methyl-16α-chloro-5-androsten-17-one] , what value of Spleen wt is listed for dexamethasone-induced thymic and splenic atrophy? 38.6 ± 6.3
